src = patent US20210163601A1

- experimental_system: T1, Soluble ASGR-1 (recombinant, biotinylated) (human, UniProt P07306 62-291, limits assumed, biotinylated)
- T1 construct: also called recombinant, soluble ASGR-1 biotinylated protein
- T1 sequence: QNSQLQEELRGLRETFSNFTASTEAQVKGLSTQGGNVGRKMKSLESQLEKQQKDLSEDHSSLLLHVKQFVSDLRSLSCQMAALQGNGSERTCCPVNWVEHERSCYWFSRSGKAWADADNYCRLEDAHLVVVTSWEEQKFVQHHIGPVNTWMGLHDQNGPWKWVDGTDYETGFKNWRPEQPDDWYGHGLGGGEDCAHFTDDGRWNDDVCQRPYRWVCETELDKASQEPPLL
- protocol_text: limiting antigen bead FACS; biotinylated soluble ASGR-1 coated at 2.5 ng/mL on LumAvidin beads;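 also: hybridoma supernatants of ligand-competing antibodies bound to antigen-loaded beads, read by flow cytometry on an iQue Screener in calcium-containing buffer, higher fluorescence meaning stronger relative affinity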
Entries and their measured FACS Geomean follow.

191G10 (antibody, V domains shown, Tested as hybridoma supernatant) VH: QVQLVESGGGVVQPGRSLRLSCAASGFTFSSYGMHWVRQAPGKGLEWVAVIWYDGSNKNYADSVKGRFTISRDNSKNTLYLQMNSLRAEDTAVYYCARDQGVGYDGLDVWGQGTTVTVSS VL: DIQMTQSPSSLSASVGDRVTITCRTSQGIGKYLAWFQQKPGKAPKSLLYKVSSLQSGVPSKFSGSGSGTDFTLTISSLQPEDFATYYCQQYMTYPLTFGGGTKVEIK    24200

What the record says about 4B1 (antibody, V domains shown, Tested as hybridoma supernatant) VH: QVQLQESGPGLVKPSETLSLTCSVSGDSISSYSWSWIRQPAGKGLEWIGRIYTSGSTNYIPSLKSRITMSVDTSKKQFSLKLSSVTAADTAVYYCARDLKSSGCLFFDYWGQGTLVTVSS VL: DIQMTQSPSSLSASVGDRVTITCRASHTIRTYLNWYQQKPGKAPKLLIYAASSLQSGVPSRINGSGSGTDFTLTITNLQPEDFATYYCQQSYNISFTFGPGTKVDIK : FACS Geomean is 10100

The reported FACS Geomean of the binder 190F8 (antibody, V domains shown, Tested as hybridoma supernatant) VH: QVQLVESGGGVVQPGRSLRLSCAASGFTFSTYGMHWVRQAPGKGLEWVAVIWYDGSNKNYADSVKGRFTISRDNSKNTLYLQMNSLRAEDTAVYYCARDQGVGYDGLDVWGQGTTVTVSS VL: DIQMTQSPSSLSASVGDRVTITCRTSQGIGNYLAWFQQKPGKAPKSLLYKASSLQSGVPSKFSGSGSGTDFTLTISSLQPEDFATYYCQQYMTYPLTFGGGTKVEIK was 13900

Per the records, this binder ( 184E7 (antibody, V domains shown, Tested as hybridoma supernatant) VH: QVQLVQSGAEVKTPGASVKVSCRASGYTFTSYNMHWVRQVPGQGLEWMGWINPNNGGSNYTQKFQGRVTMTRDTSISTAYMELSRLRSDDTAVYYCARKFGDWGQGTLVTVSS VL: DIQMTQSPSSRSASIGERVTITCRASQGISNYLAWIQQKPGTAPKSLIYAASSLQSGVSSRFSGSGFGTDFTITISSVQREDFATYYCQQYNGYPFTFGHGTKVDIK ) has FACS Geomean equal to 40200

Short answer for 194C1 (antibody, V domains shown, Tested as hybridoma supernatant) VH: QVQLVESGGGVVQPGRSLRLSCAASGFTFSSYGMHWVRQAPGKGLEWVAVIWYDGSNEHYADSVKGRFTISRDNSKNTLYLQMNSLRAEDTAVYYCARNRGVGYYGLDVWGQGTTVTVSS VL: DIQMTQSPSSLSASVGDRVTITCRASQGISNYLAWFQQKPGKAPKSLIYAASSLQSGVPSKFSGSGSGTDFTLTISSLQPEDFATYYCLHYLTYPLTFGGGTKVEIK : FACS Geomean was 16900
